Quick list: Papp at 5 mg/ml per entry.
assay: in vitro; details: New Zealand White, rabbit

COMPOUND | Papp at 5 mg/ml / ×10⁻⁶ cm/s
NC(=O)OC[C@@H](O)c1ccccc1Cl | 27.1
O=C1CN=C(c2ccccc2Cl)c2cc([N+](=O)[O-])ccc2N1 [Clonazepam, clonazepam] | 19.3

src = patent US6627211B1
